reported-metric: melting point

Example molecules with recorded melting point:
> print(dat)
                                  structure     meas.value
1            N#Cc1ccccc1SCC(=O)Nc1ccc(F)cc1  215 to 217 °C
2  O=C(CSc1cccc(C(F)(F)F)n1)Nc1ccc(F)c(Cl)c1    86 to 88 °C
3       Cc1ccc(C#N)c(SCC(=O)Nc2ccc(F)cc2)n1  238 to 240 °C

Give its melting point value. Item: `N#Cc1ccc(C(F)(F)F)nc1SCC(=O)Nc1ccccc1F`
208 to 211 °C

Record request: melting point value, item `Cc1ccc(NC(=O)CSc2nc(C(F)(F)F)ccc2C#N)cc1`
212 to 214 °C

====

Target: HeLa (IDO1) (Homo sapiens)
Sequence (P14902 whole entry): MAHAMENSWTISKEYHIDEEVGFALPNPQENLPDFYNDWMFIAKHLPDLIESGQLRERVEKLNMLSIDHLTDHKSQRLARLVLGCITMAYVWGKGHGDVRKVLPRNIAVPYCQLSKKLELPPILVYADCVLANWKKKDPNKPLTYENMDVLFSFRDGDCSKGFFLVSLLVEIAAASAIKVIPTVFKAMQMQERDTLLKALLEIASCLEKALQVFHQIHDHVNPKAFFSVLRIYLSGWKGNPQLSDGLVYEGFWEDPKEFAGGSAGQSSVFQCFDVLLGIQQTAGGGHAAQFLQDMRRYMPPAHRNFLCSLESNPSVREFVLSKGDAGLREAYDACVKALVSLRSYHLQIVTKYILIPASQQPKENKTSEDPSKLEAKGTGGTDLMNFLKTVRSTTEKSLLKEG
Assay: Cell-based IDO1 activity assay (HeLa kynurenine assay)
Conditions: IFN-γ stimulated HeLa cells, 24 h; read-out: Cellular assay EC50 HeLa (IDO1)
Procedure: After incubation for 24 h, 140 µL of supernatant was mixed with 10 µL of 6.1 N trichloroacetic acid and the mixture was incubated for 30 min at 60 °C. The reaction mixture was then centrifuged for 20 min at 4000 rpm at 0 °C to remove sediments. About 100 µL of the supernatant was mixed with 100 µL of 2% (w/v) p-DMAB in acetic acid and measured at 480 nm. The final DMSO concentration was 0.5%. The data were analysed using Graphpad Prism 6. […]
pEC50: −log10 of the molar value.
reported-metric: pEC50

a. CC(C)c1ccc(C#N)c(SCC(=O)Nc2ccc(F)cc2)n1 [LVS-019]
b. Cc1cc(C)c(C#N)c(SCC(=O)Nc2ccc(Cl)c(Cl)c2)n1 [LVS-039]
Hi there, can you help? I need to know whether a or b has lower measured pEC50. Label of pick, please.
a
(a: 5.11, b: 5.47)

====

target: IDO1 (Homo sapiens)
Sequence (P14902 whole entry): as above
reported-metric: IC50 (µM)

a. N#Cc1cc2c(nc1SCC(=O)Nc1nccs1)CCCCC2 [LVS-043]
b. N#Cc1cccnc1SCC(=O)Nc1ccc(F)cc1 [LBJ-03]
Pick one: a or b . Which has the bigger IC50 number? Provide the label of your selected option as the answer.
a
(a: 21.7 µM, b: 9.14 µM)

====

Test: Water solubility evaluation (Avdeef–Bucher potentiometric titration)
Format: physicochemical
Conditions: thermodynamic from solid
Experimental: The aqueous solubility was determined on a Gemini Profiler instrument (pION) by the “goldstandard” Avdeef–Bucher potentiometric titration method[46]^,[47].
reported-metric: solubility (µg/mL)
Write the answer as a number in µg/mL, unit excluded.

Reported solubility, molecule `N#Cc1cccnc1SCC(=O)Nc1ccc(F)cc1` : ____
75

====

molecular target: IDO1 (Homo sapiens); construct: made in house; test: Enzyme-based IDO1 activity assay; type: biochemical; conditions: 10 μM compound, purified recombinant IDO1
reported-metric: Inhibition ratio (%) @10 μM

> print(dat)
                                   compound        tested.system              reported.metric  meas.value
1  O=C(CSc1nnc2scc(-c3ccc(Cl)cc3)n12)Nc1ccc(F)cc1 [LVS-005]  IDO1 (Homo sapiens)  Inhibition ratio (%) @10 μM       30.73
2  CCOc1ccc(/C=c2\sc3nnc(-c4ccccc4Cl)n3c2=O)cc1 [LVS-015]  IDO1 (Homo sapiens)  Inhibition ratio (%) @10 μM       11.05
3  O=S(=O)(c1cccc2cccc(Cl)c12)N1CCCC1 [LVS-013]  IDO1 (Homo sapiens)  Inhibition ratio (%) @10 μM       14.15
4  O=C(CS(=O)(=O)c1ccccc1)Nc1ccc(Br)cn1 [LVS-022]  IDO1 (Homo sapiens)  Inhibition ratio (%) @10 μM       21.29
5  COc1cccc(NC(=O)CSc2nc(N)c(C#N)cc2C#N)c1 [LVS-008]  IDO1 (Homo sapiens)  Inhibition ratio (%) @10 μM        4.31
6  Cn1c(=O)c(Sc2ccc(Cl)cc2)c(O)c2ccccc21 [LVS-023]  IDO1 (Homo sapiens)  Inhibition ratio (%) @10 μM       10.22

1. O=c1c2c(-c3ccc([N+](=O)[O-])cc3)csc2nc2n1CCC2 [LVS-004]
2. COc1ccccc1-c1cc(C(=O)O)c2ccccc2n1 [LVS-020]
Field: entry with larger Inhibition ratio (%) @10 μM (options 1 / 2 ). Refer to your chosen item by its label in the answer.
1

a. Cc1ccc(C(=O)CC2(O)C(=O)N(C)c3ccccc32)cc1 (stereo not shown) [LVS-029]
b. O=C(Cn1nnnc1-c1ccccc1)c1ccc(Br)cc1 [LVS-030]
Which entry has a larger number for Inhibition ratio (%) @10 μM, a or b ? Response format: the label of the selected entry.
a
(a: 9.91%, b: 2.00%)

1. Cc1ccc(NC(=O)COc2ccccc2CO)cc1 [LVS-014]
2. O=S(=O)(NC1CCCc2ccccc21)c1ccc(Br)cc1 (stereo not shown) [LVS-027]
Form field 'greater Inhibition ratio (%) @10 μM' accepts 1 or 2 ; which applies? Kindly give the label for the entry you pick.
1
(1: 11.62%, 2: 3.37%)

====

This section presents compounds with their documented melting point values.

# melting point lookup, item N#Cc1ccncc1SCC(=O)Nc1ccc(F)cc1 [LBJ-04]
206 to 209 °C

Form field: reported melting point of N#Cc1ncccc1SCC(=O)Nc1ccc(F)cc1 [LBJ-06]
211 to 213 °C

For the compound shown here, N#Cc1cccnc1OCC(=O)Nc1ccc(F)cc1 [LBJ-01] , give the reported melting point.
234 to 236 °C

Which measured melting point value corresponds to N#Cc1ccc(C(F)(F)F)nc1SCC(=O)Nc1ccc(F)cc1 [LBJ-08] ?
201 to 204 °C

Name the reported melting point value associated with the compound N#Cc1ccc(C(F)(F)F)nc1SCC(=O)Nc1ccccc1 [LBJ-11]
230 to 233 °C

Could you tell me which melting point is on file for N#Cc1cnccc1SCC(=O)Nc1ccc(F)cc1 [LBJ-05] ?
232 to 234 °C

Value lookup for melting point; key = N#Cc1cccnc1SCC(=O)Nc1ccc(F)cc1 [LBJ-03]
198 to 201 °C

====

As a worked illustration, we turn to IC50 data collected for IDO1 (Homo sapiens).
reported-metric: IC50 (µM)

Some molecules with recorded IC50:
> print(dat)
                                  structure  meas.value
1  Cc1ccc(NC(=O)CSc2nc(C(F)(F)F)ccc2C#N)cc1        17.9
2           Cn1c(COc2ccccc2)c(C#N)c2ccccc21        8.08
3  COCc1cc(C)nc(SCC(=O)Nc2ccc(C)c(C)c2)c1C#N        27.6
4  Cc1cc(C)c(C#N)c(SCC(=O)Nc2sc3c(c2C#N)CCC3)n1          26
5  COc1ccc(-c2ccc(C#N)c(SCC(=O)Nc3ccccc3Br)n2)cc1        74.7
6           CCN(CC)C(=O)CSc1nc(C)cc(C)c1C#N        36.6
7  N#Cc1c(C(F)(F)F)cc(-c2cccs2)nc1SCC(=O)Nc1ccc2ccccc2c1        66.2
8  N#Cc1cc2c(nc1SCC(=O)Nc1sc3c(c1C#N)CCCC3)CCCCCC2        14.8
9            N#Cc1cccnc1OCC(=O)Nc1ccc(F)cc1        19.5

P. Cc1ccc(C#N)c(SCC(=O)Nc2ccc(F)cc2)n1
Q. Cc1sc2nc(SCC(=O)c3ccc(F)cc3)n(N)c(=O)c2c1C
Of P and Q , which shows the smaller IC50 value? Identify your selection by its label.
Q
(Q: 14.2 µM, P: 20.6 µM)
